- target_under_test: aspartyl proteases, in particular, beta-secretase
- assay_text: Ki of the compounds listed in Tables 1 and 2 (no method described)
- Type: biochemical
- assay_setup: Table 1, compounds of formula Ia, W is -(CH2)n-
pKi: −log10 of the molar value.
property: pKi

Sample records with pKi:
CC(C)CN(C(=O)c1ccccc1)[C@@H](CCCCNC(=O)OCC1c2ccccc2-c2ccccc21)C(=O)O [Compound No. 46] = < 7.00
Cc1ccc(S(=O)(=O)N(CC(C)C)[C@@H](CCCCNC(=O)c2cc3ccccc3[nH]2)C(=O)O)cc1 [compound 88] = < 6.20
Cc1ccc(S(=O)(=O)N(CC(C)C)[C@@H](CCCCNC(=O)c2c[nH]c3ccccc23)C(=O)O)cc1 [compound 87] = < 5.90

Entry COC(=O)[C@H](CCCCNC(=O)OCC1c2ccccc2-c2ccccc21)N(CC(C)C)S(=O)(=O)c1ccc(C)cc1 [Compound No. 123] needs its pKi filled in; supply it. < 6.52
